Tested on: 616215-338-R-J1-PDC complex spheroid growth, % test/control
assay_comment: Anticancer human tumor 616215-338-R-J1-PDC patient-derived colon adenocarcinoma cell line growth inhibition [Asc]
experimental_context: curve of first compound; second compound 1 µM
From the text: Multicellular complex tumor spheroid response to apoptosis pathway targeting inhibitors Alrizomadlin, Pelcitoclax, and Dasminapant in combination with a variety of drugs and investigational agents in selected tumor cell lines […] Compounds. […] If the clinical Cmax for an agent had not been determined, the highest concentration tested was 10 microM. […]
Known IC50 of a selection of molecules

{"columns": ["molecule", "IC50"],
 "data": [
  ["C=C(F)C(=O)N1CCN(c2nc(OCC3CCCN3C)nc3c2CCN(c2cccc4cccc(Cl)c24)C3)CC1CC#N (stereo not drawn) + Cc1c(S(C)(=O)=O)c(-c2cc(F)cc(N3CCN(c4ccc(NS(=O)(=O)c5ccc(NC(CCN6CCC(C(=O)OCCCP(=O)(O)O)CC6)CSc6ccccc6)c(S(=O)(=O)C(F)(F)F)c5)cc4)CC3)c2)c(-c2ccc(Cl)cc2)n1C(C)C", "2950 nM"],
  ["NC1CCC(NC2CC2c2ccccc2)CC1 (stereo not drawn) + Cc1c(S(C)(=O)=O)c(-c2cc(F)cc(N3CCN(c4ccc(NS(=O)(=O)c5ccc(NC(CCN6CCC(C(=O)OCCCP(=O)(O)O)CC6)CSc6ccccc6)c(S(=O)(=O)C(F)(F)F)c5)cc4)CC3)c2)c(-c2ccc(Cl)cc2)n1C(C)C", "> 100 nM"]
]}

Shifting focus to the molecule that follows.
IC50 reading for Cc1nc(N2CCC3(CC2)COC(C)C3N)c(CO)nc1Sc1ccnc(N)c1Cl (stereo not drawn) + Cc1c(S(C)(=O)=O)c(-c2cc(F)cc(N3CCN(c4ccc(NS(=O)(=O)c5ccc(NC(CCN6CCC(C(=O)OCCCP(=O)(O)O)CC6)CSc6ccccc6)c(S(=O)(=O)C(F)(F)F)c5)cc4)CC3)c2)c(-c2ccc(Cl)cc2)n1C(C)C : > 3000 nM

###

Test system: 616215-338-R-J1-PDC complex spheroid growth, % test/control
assay_comment: Anticancer human tumor 616215-338-R-J1-PDC cell line growth inhibition [Asc];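 also: spheroids exposed to agents for seven days before readout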
experimental_context: curve of first compound; second compound 1 µM
endpoint_label: pIC50
pIC50 here is simply -log10 of the concentration when that concentration is written in mol/L.

Answered examples (2):
{"columns": ["compound", "endpoint_label", "experimental_result"],
 "data": [
  ["COc1c(OCCCN2CCOCC2)ccc2c3n(c(=NC(=O)c4cnc(N)nc4)nc12)CCN3 + CNC(C)C(=O)NC1CN(S(=O)(=O)c2cccc(S(=O)(=O)N3CCC4CCC(C(=O)NC(c5ccccc5)c5ccccc5)N4C(=O)C(NC(=O)C(C)NC)C3)c2)CCC2CCC(C(=O)NC(c3ccccc3)c3ccccc3)N2C1=O", "pIC50", 7.39],
  ["CCN1CCN(Cc2ccc(Nc3ncc(F)c(-c4cc(F)c5nc(C)n(C(C)C)c5c4)n3)nc2)CC1 + CNC(C)C(=O)NC1CN(S(=O)(=O)c2cccc(S(=O)(=O)N3CCC4CCC(C(=O)NC(c5ccccc5)c5ccccc5)N4C(=O)C(NC(=O)C(C)NC)C3)c2)CCC2CCC(C(=O)NC(c3ccccc3)c3ccccc3)N2C1=O", "pIC50", 6.26]
]}

// next entry
Briefly, pIC50 measured for O=C(c1ccc(F)c(F)c1Nc1ccc(I)cc1F)N1CC(O)([C@@H]2CCCCN2)C1 + CNC(C)C(=O)NC1CN(S(=O)(=O)c2cccc(S(=O)(=O)N3CCC4CCC(C(=O)NC(c5ccccc5)c5ccccc5)N4C(=O)C(NC(=O)C(C)NC)C3)c2)CCC2CCC(C(=O)NC(c3ccccc3)c3ccccc3)N2C1=O : 7.62

###

// viability, T/C lookup, one value per entry
System: 616215-338-R-J1-PDC complex spheroid growth, % test/control
assay_comment: Anticancer human tumor 616215-338-R-J1-PDC cell line growth inhibition [Asc];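 also: spheroids exposed to agents for seven days before readout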;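 as to viability, T/C: 100% = DMSO vehicle control viability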
experimental_context: second compound 0.3 µM; first compound 0.316 µM; stronger effect = lower value
From the text: Multicellular complex tumor spheroid response to apoptosis pathway targeting inhibitors Alrizomadlin, Pelcitoclax, and Dasminapant in combination with a variety of drugs and investigational agents in selected tumor cell lines […] Compounds. […] If the clinical Cmax for an agent had not been determined, the highest concentration tested was 10 microM. […]

{"columns": ["compound", "experimental_result"],
 "data": [
  ["CCN1CCN(Cc2ccc(Nc3ncc(F)c(-c4cc(F)c5nc(C)n(C(C)C)c5c4)n3)nc2)CC1 + CCN1C(C(=O)NC23CCC(C(=O)O)(CC2)CC3)C(c2cccc(Cl)c2F)C2(C(=O)Nc3cc(Cl)ccc32)C12CCCCC2", "69.5%"],
  ["O=C(c1cc(Cc2n[nH]c(=O)c3ccccc23)ccc1F)N1CCN(C(=O)C2CC2)CC1 + CCN1C(C(=O)NC23CCC(C(=O)O)(CC2)CC3)C(c2cccc(Cl)c2F)C2(C(=O)Nc3cc(Cl)ccc32)C12CCCCC2", "78%"]
]}

Next item in the queue.
Recorded viability, T/C for COc1c(OCCCN2CCOCC2)ccc2c3n(c(=NC(=O)c4cnc(N)nc4)nc12)CCN3 + CCN1C(C(=O)NC23CCC(C(=O)O)(CC2)CC3)C(c2cccc(Cl)c2F)C2(C(=O)Nc3cc(Cl)ccc32)C12CCCCC2 on 616215-338-R-J1-PDC complex spheroid growth, % test/control was 9.03%

###

System: 616215-338-R-J1-PDC complex spheroid growth, % test/control
assay_comment: Anticancer human tumor 616215-338-R-J1-PDC cell line growth inhibition [Asc]; active = viability on the fitted dose curve at most 10% of control; inactive = the rest;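 also: spheroids exposed to agents for seven days before readout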
experimental_context: second compound 3.16 µM; first compound 0.316 µM
Outcome (select one): class 1 for active, class 0 for inactive

{"columns": ["molecule", "class_assignment"],
 "data": [
  ["O=C(c1cc(Cc2n[nH]c(=O)c3ccccc23)ccc1F)N1CCN(C(=O)C2CC2)CC1 + Cc1c(S(C)(=O)=O)c(-c2cc(F)cc(N3CCN(c4ccc(NS(=O)(=O)c5ccc(NC(CCN6CCC(C(=O)OCCCP(=O)(O)O)CC6)CSc6ccccc6)c(S(=O)(=O)C(F)(F)F)c5)cc4)CC3)c2)c(-c2ccc(Cl)cc2)n1C(C)C", "class 0"],
  ["C=C(F)C(=O)N1CCN(c2nc(OCC3CCCN3C)nc3c2CCN(c2cccc4cccc(Cl)c24)C3)CC1CC#N (stereo not drawn) + Cc1c(S(C)(=O)=O)c(-c2cc(F)cc(N3CCN(c4ccc(NS(=O)(=O)c5ccc(NC(CCN6CCC(C(=O)OCCCP(=O)(O)O)CC6)CSc6ccccc6)c(S(=O)(=O)C(F)(F)F)c5)cc4)CC3)c2)c(-c2ccc(Cl)cc2)n1C(C)C", "class 0"]
]}

[in] Hi, do you know how CCN1CCN(Cc2ccc(Nc3ncc(F)c(-c4cc(F)c5nc(C)n(C(C)C)c5c4)n3)nc2)CC1 + Cc1c(S(C)(=O)=O)c(-c2cc(F)cc(N3CCN(c4ccc(NS(=O)(=O)c5ccc(NC(CCN6CCC(C(=O)OCCCP(=O)(O)O)CC6)CSc6ccccc6)c(S(=O)(=O)C(F)(F)F)c5)cc4)CC3)c2)c(-c2ccc(Cl)cc2)n1C(C)C came out in this test?
[out] class 0

[in] Would you mind telling me which call this test gave CNC(C)C(=O)NC1CN(S(=O)(=O)c2cccc(S(=O)(=O)N3CCC4CCC(C(=O)NC(c5ccccc5)c5ccccc5)N4C(=O)C(NC(=O)C(C)NC)C3)c2)CCC2CCC(C(=O)NC(c3ccccc3)c3ccccc3)N2C1=O (stereo not drawn) + Cc1c(S(C)(=O)=O)c(-c2cc(F)cc(N3CCN(c4ccc(NS(=O)(=O)c5ccc(NC(CCN6CCC(C(=O)OCCCP(=O)(O)O)CC6)CSc6ccccc6)c(S(=O)(=O)C(F)(F)F)c5)cc4)CC3)c2)c(-c2ccc(Cl)cc2)n1C(C)C ?
[out] class 0

[in] Tell me the assay call for C=CC(=O)N1CCN(c2nc(=O)n(-c3c(C)ccnc3C(C)C)c3nc(-c4c(O)cccc4F)c(F)cc23)C(C)C1 (stereo not drawn) + Cc1c(S(C)(=O)=O)c(-c2cc(F)cc(N3CCN(c4ccc(NS(=O)(=O)c5ccc(NC(CCN6CCC(C(=O)OCCCP(=O)(O)O)CC6)CSc6ccccc6)c(S(=O)(=O)C(F)(F)F)c5)cc4)CC3)c2)c(-c2ccc(Cl)cc2)n1C(C)C please.
[out] class 0

[in] Given COc1c(OCCCN2CCOCC2)ccc2c3n(c(=NC(=O)c4cnc(N)nc4)nc12)CCN3 + Cc1c(S(C)(=O)=O)c(-c2cc(F)cc(N3CCN(c4ccc(NS(=O)(=O)c5ccc(NC(CCN6CCC(C(=O)OCCCP(=O)(O)O)CC6)CSc6ccccc6)c(S(=O)(=O)C(F)(F)F)c5)cc4)CC3)c2)c(-c2ccc(Cl)cc2)n1C(C)C , state the outcome it received in this test.
[out] class 1

[in] Call for entry O=C(c1ccc(F)c(F)c1Nc1ccc(I)cc1F)N1CC(O)([C@@H]2CCCCN2)C1 + Cc1c(S(C)(=O)=O)c(-c2cc(F)cc(N3CCN(c4ccc(NS(=O)(=O)c5ccc(NC(CCN6CCC(C(=O)OCCCP(=O)(O)O)CC6)CSc6ccccc6)c(S(=O)(=O)C(F)(F)F)c5)cc4)CC3)c2)c(-c2ccc(Cl)cc2)n1C(C)C :
[out] class 1

[in] // param item: C#Cc1c(F)ccc2cc(O)cc(-c3ncc4c(N5CC6CCC(C5)N6)nc(OCC56CCCN5CC(F)C6)nc4c3F)c12 (stereo not drawn) + Cc1c(S(C)(=O)=O)c(-c2cc(F)cc(N3CCN(c4ccc(NS(=O)(=O)c5ccc(NC(CCN6CCC(C(=O)OCCCP(=O)(O)O)CC6)CSc6ccccc6)c(S(=O)(=O)C(F)(F)F)c5)cc4)CC3)c2)c(-c2ccc(Cl)cc2)n1C(C)C ; yields the recorded call
[out] class 0

Just for reference, PubChem BioAssay AID1963448 is where these values come from.
